Target: T1, Dpo1 exo- (SsoDpo1, B-family DNA polymerase) (Sulfolobus solfataricus, UniProt P26811 1-882, D231A;D318A)
T1 sequence: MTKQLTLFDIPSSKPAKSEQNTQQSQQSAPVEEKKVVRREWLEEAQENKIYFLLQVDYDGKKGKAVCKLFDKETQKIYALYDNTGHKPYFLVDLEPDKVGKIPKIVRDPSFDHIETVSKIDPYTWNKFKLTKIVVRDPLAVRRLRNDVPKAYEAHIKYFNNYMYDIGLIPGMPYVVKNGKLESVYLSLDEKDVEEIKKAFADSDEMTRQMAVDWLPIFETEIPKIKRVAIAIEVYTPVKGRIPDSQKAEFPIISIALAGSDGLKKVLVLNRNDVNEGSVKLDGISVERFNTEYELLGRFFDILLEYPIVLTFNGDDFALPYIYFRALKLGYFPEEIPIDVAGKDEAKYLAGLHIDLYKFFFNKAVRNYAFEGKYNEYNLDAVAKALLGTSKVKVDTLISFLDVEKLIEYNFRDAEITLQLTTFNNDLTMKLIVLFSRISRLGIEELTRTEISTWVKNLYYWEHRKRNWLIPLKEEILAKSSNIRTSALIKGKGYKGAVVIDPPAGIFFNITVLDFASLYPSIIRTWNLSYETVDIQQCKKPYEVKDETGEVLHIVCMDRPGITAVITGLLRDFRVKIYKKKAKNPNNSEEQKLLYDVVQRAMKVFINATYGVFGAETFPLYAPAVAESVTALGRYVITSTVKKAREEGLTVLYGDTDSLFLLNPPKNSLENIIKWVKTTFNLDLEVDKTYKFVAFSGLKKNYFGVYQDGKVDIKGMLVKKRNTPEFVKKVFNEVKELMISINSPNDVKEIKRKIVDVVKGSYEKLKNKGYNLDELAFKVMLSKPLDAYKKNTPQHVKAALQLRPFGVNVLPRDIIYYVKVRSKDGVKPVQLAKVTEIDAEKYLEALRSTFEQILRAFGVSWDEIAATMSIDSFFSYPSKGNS
Assay: fluorescence anisotropy
Attribute Measured: Kd (nM)
Numbers only, in nM.

Form field: reported Kd of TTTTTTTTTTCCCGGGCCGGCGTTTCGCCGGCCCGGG (structured_DNA) [37-nt hairpin primer-template, 5'-Cy3]
113

These measurements were taken from paper PMC3477848.
